Measured kcat by item
test system: dengue virus type 2; assay: Activity of dengue virus 2 recombinant NS3 protease expressed in Escherichia coli C41(DE3) by fluorogenic assay
Non-standard residues stand in square brackets, D forms with d. Residues, ends and D or L forms follow the SMILES beside them. Tyr(3-NO2) = N[C@@H](Cc1ccc(O)c([N+](=O)[O-])c1)C(=O)O; 2Abz = Nc1ccccc1C(=O)O

compound: NC(=O)C[C@H](NC(=O)c1ccccc1N)C(=O)N1CCC[C@H]1C(=O)N[C@@H](CO)C(=O)N[C@@H](Cc1cnc[nH]1)C(=O)N[C@@H](Cc1ccc(O)c([N+](=O)[O-])c1)C(N)=O (H-[2Abz]NPSH[Tyr(3-NO2)]-NH2)
unitString: s⁻¹
kcat: 0.00133
--
compound: C[C@H](NC(=O)c1ccccc1N)C(=O)N1CCC[C@H]1C(=O)N[C@@H](CS)C(=O)N[C@@H](CC(N)=O)C(=O)N[C@@H](Cc1ccc(O)c([N+](=O)[O-])c1)C(N)=O (H-[2Abz]APCN[Tyr(3-NO2)]-NH2)
unitString: s⁻¹
kcat: 0.004
--
compound: CC(C)C[C@H](NC(=O)[C@@H]1CCCN1C(=O)[C@H](Cc1c[nH]c2ccccc12)NC(=O)[C@H](CO)NC(=O)c1ccccc1N)C(=O)N[C@@H](Cc1ccc(O)c([N+](=O)[O-])c1)C(N)=O (H-[2Abz]SWPL[Tyr(3-NO2)]-NH2)
unitString: s⁻¹
kcat: 0.0105
--
compound: C[C@H](NC(=O)c1ccccc1N)C(=O)N[C@@H](CC(N)=O)C(=O)NCC(=O)N[C@@H](Cc1cnc[nH]1)C(=O)N[C@@H](Cc1ccc(O)c([N+](=O)[O-])c1)C(N)=O (H-[2Abz]ANGH[Tyr(3-NO2)]-NH2)
unitString: s⁻¹
kcat: 0.0015
--
compound: NC(=O)C[C@H](NC(=O)CNC(=O)[C@H](Cc1cnc[nH]1)NC(=O)[C@H](Cc1cnc[nH]1)NC(=O)c1ccccc1N)C(=O)N[C@@H](Cc1ccc(O)c([N+](=O)[O-])c1)C(N)=O (H-[2Abz]HHGN[Tyr(3-NO2)]-NH2)
unitString: s⁻¹
kcat: 0.00133
--
compound: C[C@@H](O)[C@H](NC(=O)CNC(=O)CNC(=O)c1ccccc1N)C(=O)N[C@@H](CC(=O)O)C(=O)N[C@@H](Cc1ccc(O)c([N+](=O)[O-])c1)C(N)=O (H-[2Abz]GGTD[Tyr(3-NO2)]-NH2)
unitString: s⁻¹
kcat: 0.00717
--
compound: NC(=O)[C@H](Cc1ccc(O)c([N+](=O)[O-])c1)NC(=O)[C@H](CC(=O)O)NC(=O)[C@H](CO)NC(=O)[C@H](Cc1c[nH]c2ccccc12)NC(=O)[C@H](Cc1cnc[nH]1)NC(=O)c1ccccc1N (H-[2Abz]HWSD[Tyr(3-NO2)]-NH2)
unitString: s⁻¹
kcat: 0.00117
--
compound: NC(=O)[C@H](Cc1ccc(O)c([N+](=O)[O-])c1)NC(=O)[C@@H]1CCCN1C(=O)[C@@H]1CCCN1C(=O)CNC(=O)c1ccccc1N (H-[2Abz]GPP[Tyr(3-NO2)]-NH2)
unitString: s⁻¹
kcat: 0.00283
--
compound: NC(=O)[C@H](Cc1ccc(O)c([N+](=O)[O-])c1)NC(=O)[C@H](CS)NC(=O)CNC(=O)[C@H](Cc1c[nH]c2ccccc12)NC(=O)[C@H](CO)NC(=O)c1ccccc1N (H-[2Abz]SWGC[Tyr(3-NO2)]-NH2)
unitString: s⁻¹
kcat: 0.0065
--
compound: C[C@@H](O)[C@H](NC(=O)CNC(=O)c1ccccc1N)C(=O)NCC(=O)N[C@@H](CC(N)=O)C(=O)N[C@@H](Cc1ccc(O)c([N+](=O)[O-])c1)C(N)=O (H-[2Abz]GTGN[Tyr(3-NO2)]-NH2)
unitString: s⁻¹
kcat: 0.00483
--
compound: CC(C)[C@H](NC(=O)CNC(=O)[C@H](CO)NC(=O)c1ccccc1N)C(=O)N[C@@H](CS)C(=O)N[C@@H](Cc1ccc(O)c([N+](=O)[O-])c1)C(N)=O (H-[2Abz]SGVC[Tyr(3-NO2)]-NH2)
unitString: s⁻¹
kcat: 0.0163
--
compound: C[C@H](NC(=O)[C@H](CC(N)=O)NC(=O)c1ccccc1N)C(=O)N[C@@H](CS)C(=O)N[C@@H](CS)C(=O)N[C@@H](Cc1ccc(O)c([N+](=O)[O-])c1)C(N)=O (H-[2Abz]NACC[Tyr(3-NO2)]-NH2)
unitString: s⁻¹
kcat: 0.00467
--
compound: CC(C)C[C@H](NC(=O)[C@H](Cc1cnc[nH]1)NC(=O)c1ccccc1N)C(=O)N[C@H](C(=O)N[C@@H](Cc1cnc[nH]1)C(=O)N[C@@H](Cc1ccc(O)c([N+](=O)[O-])c1)C(N)=O)C(C)C (H-[2Abz]HLVH[Tyr(3-NO2)]-NH2)
unitString: s⁻¹
kcat: 0.00233
--
compound: CC(C)[C@H](NC(=O)[C@H](C)NC(=O)[C@H](C)NC(=O)c1ccccc1N)C(=O)N[C@@H](CC(=O)O)C(=O)N[C@@H](Cc1ccc(O)c([N+](=O)[O-])c1)C(N)=O (H-[2Abz]AAVD[Tyr(3-NO2)]-NH2)
unitString: s⁻¹
kcat: 0.0125
--
compound: NC(=O)[C@H](Cc1ccc(O)c([N+](=O)[O-])c1)NC(=O)[C@H](Cc1cnc[nH]1)NC(=O)[C@@H]1CCCN1C(=O)[C@H](CO)NC(=O)[C@H](Cc1cnc[nH]1)NC(=O)c1ccccc1N (H-[2Abz]HSPH[Tyr(3-NO2)]-NH2)
unitString: s⁻¹
kcat: 0.00117
--
compound: CSCC[C@H](NC(=O)[C@H](C)NC(=O)[C@H](C)NC(=O)[C@H](CO)NC(=O)c1ccccc1N)C(=O)N[C@@H](Cc1ccc(O)c([N+](=O)[O-])c1)C(N)=O (H-[2Abz]SAAM[Tyr(3-NO2)]-NH2)
unitString: s⁻¹
kcat: 0.026
--
compound: C[C@H](NC(=O)c1ccccc1N)C(=O)N[C@@H](Cc1cnc[nH]1)C(=O)N[C@@H](CO)C(=O)N[C@@H](CS)C(=O)N[C@@H](Cc1ccc(O)c([N+](=O)[O-])c1)C(N)=O (H-[2Abz]AHSC[Tyr(3-NO2)]-NH2)
unitString: s⁻¹
kcat: 0.00433

* * *

test system: dengue virus type 1; assay: Activity of dengue virus 1 recombinant NS3 protease expressed in Escherichia coli C41(DE3) by fluorogenic assay
Non-standard residues stand in square brackets, D forms with d. Residues, ends and D or L forms follow the SMILES beside them. Tyr(3-NO2) = N[C@@H](Cc1ccc(O)c([N+](=O)[O-])c1)C(=O)O; 2Abz = Nc1ccccc1C(=O)O
Parameter threshold = 20 µM. Response is yes when Km meets or exceeds it, else no.

compound: NC(=O)[C@H](Cc1ccc(O)c([N+](=O)[O-])c1)NC(=O)[C@@H]1CCCN1C(=O)[C@@H]1CCCN1C(=O)CNC(=O)c1ccccc1N (H-[2Abz]GPP[Tyr(3-NO2)]-NH2)
groupLabel: no

compound: C[C@@H](O)[C@H](NC(=O)CNC(=O)c1ccccc1N)C(=O)NCC(=O)N[C@@H](CC(N)=O)C(=O)N[C@@H](Cc1ccc(O)c([N+](=O)[O-])c1)C(N)=O (H-[2Abz]GTGN[Tyr(3-NO2)]-NH2)
groupLabel: yes

compound: CC(C)[C@H](NC(=O)[C@@H](NC(=O)CNC(=O)c1ccccc1N)[C@@H](C)O)C(=O)N[C@@H](CC(N)=O)C(=O)N[C@@H](Cc1ccc(O)c([N+](=O)[O-])c1)C(N)=O (H-[2Abz]GTVN[Tyr(3-NO2)]-NH2)
groupLabel: no

compound: C[C@@H](O)[C@H](NC(=O)CNC(=O)CNC(=O)c1ccccc1N)C(=O)N[C@@H](CC(=O)O)C(=O)N[C@@H](Cc1ccc(O)c([N+](=O)[O-])c1)C(N)=O (H-[2Abz]GGTD[Tyr(3-NO2)]-NH2)
groupLabel: yes

compound: NC(=O)[C@H](Cc1ccc(O)c([N+](=O)[O-])c1)NC(=O)[C@H](Cc1cnc[nH]1)NC(=O)[C@@H]1CCCN1C(=O)[C@H](CO)NC(=O)[C@H](Cc1cnc[nH]1)NC(=O)c1ccccc1N (H-[2Abz]HSPH[Tyr(3-NO2)]-NH2)
groupLabel: no

compound: C[C@H](NC(=O)[C@H](CO)NC(=O)c1ccccc1N)C(=O)NCC(=O)N[C@@H](Cc1ccc(O)c([N+](=O)[O-])c1)C(N)=O (H-[2Abz]SAG[Tyr(3-NO2)]-NH2)
groupLabel: yes

compound: NC(=O)[C@H](Cc1ccc(O)c([N+](=O)[O-])c1)NC(=O)[C@H](Cc1cnc[nH]1)NC(=O)[C@H](CS)NC(=O)CNC(=O)[C@H](CC(=O)O)NC(=O)c1ccccc1N (H-[2Abz]DGCH[Tyr(3-NO2)]-NH2)
groupLabel: yes

compound: C[C@H](NC(=O)CNC(=O)c1ccccc1N)C(=O)N[C@H](C(=O)N[C@@H](Cc1cnc[nH]1)C(=O)N[C@@H](Cc1ccc(O)c([N+](=O)[O-])c1)C(N)=O)[C@@H](C)O (H-[2Abz]GATH[Tyr(3-NO2)]-NH2)
groupLabel: no
